B1: Transitional endoplasmic reticulum ATPase, residues 26 to 106; numbered along this chain, P55072 (parent)
chain: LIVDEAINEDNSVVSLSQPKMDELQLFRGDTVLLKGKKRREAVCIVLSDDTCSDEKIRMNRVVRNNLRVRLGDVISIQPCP

- Variants of: B1
- protocol-text: abundance fitness (aPCA) (normalised: wild type 0, dead -1); higher = more abundant; growth selection in yeast, the domain comes from the species named
- conditions-used: Homo sapiens
quantity: abundance fitness
Lab note: jot the number down without any unit.

Challenge: Tell me measured abundance fitness for `V62R` please.
Response given: -0.013

Challenge: Tell me measured abundance fitness for `N8L` please.
Response given: -0.022

Challenge: Tell me measured abundance fitness for `N60H` please.
Response given: -0.045

Challenge: Tell me measured abundance fitness for `M59I` please.
Response given: -0.002

Challenge: Tell me measured abundance fitness for `S17I` please.
Response given: -0.79

Challenge: Tell me measured abundance fitness for `G72L` please.
Response given: -0.42

Challenge: Tell me measured abundance fitness for `V14E` please.
Response given: -0.945

Challenge: Tell me measured abundance fitness for `K56I` please.
Response given: 0.013

Challenge: Tell me measured abundance fitness for `M59P` please.
Response given: -1.12

Challenge: Tell me measured abundance fitness for `V13W` please.
Response given: -0.006

Challenge: Tell me measured abundance fitness for `L71E` please.
Response given: 0.07

Challenge: Tell me measured abundance fitness for `R39S` please.
Response given: 0.016

Challenge: Tell me measured abundance fitness for `V14K` please.
Response given: -0.856

Challenge: Tell me measured abundance fitness for `D30Q` please.
Response given: 0.103

Challenge: Tell me measured abundance fitness for `E5Y` please.
Response given: 0.048

Challenge: Tell me measured abundance fitness for `V43D` please.
Response given: -0.093

Challenge: Tell me measured abundance fitness for `C44I` please.
Response given: -0.189

Challenge: Tell me measured abundance fitness for `S76G` please.
Response given: -0.021

Challenge: Tell me measured abundance fitness for `K35F` please.
Response given: -0.247

Challenge: Tell me measured abundance fitness for `L24T` please.
Response given: -0.705

Challenge: Tell me measured abundance fitness for `R61D` please.
Response given: -0.024

Challenge: Tell me measured abundance fitness for `K35R` please.
Response given: 0.006
